- assay_system: Recombinant human soluble guanylate cyclase (sGC) (Homo sapiens, UniProt Q02153)
- Construct: histidine tag (C)
- Sequence (Q02108 whole entry partner): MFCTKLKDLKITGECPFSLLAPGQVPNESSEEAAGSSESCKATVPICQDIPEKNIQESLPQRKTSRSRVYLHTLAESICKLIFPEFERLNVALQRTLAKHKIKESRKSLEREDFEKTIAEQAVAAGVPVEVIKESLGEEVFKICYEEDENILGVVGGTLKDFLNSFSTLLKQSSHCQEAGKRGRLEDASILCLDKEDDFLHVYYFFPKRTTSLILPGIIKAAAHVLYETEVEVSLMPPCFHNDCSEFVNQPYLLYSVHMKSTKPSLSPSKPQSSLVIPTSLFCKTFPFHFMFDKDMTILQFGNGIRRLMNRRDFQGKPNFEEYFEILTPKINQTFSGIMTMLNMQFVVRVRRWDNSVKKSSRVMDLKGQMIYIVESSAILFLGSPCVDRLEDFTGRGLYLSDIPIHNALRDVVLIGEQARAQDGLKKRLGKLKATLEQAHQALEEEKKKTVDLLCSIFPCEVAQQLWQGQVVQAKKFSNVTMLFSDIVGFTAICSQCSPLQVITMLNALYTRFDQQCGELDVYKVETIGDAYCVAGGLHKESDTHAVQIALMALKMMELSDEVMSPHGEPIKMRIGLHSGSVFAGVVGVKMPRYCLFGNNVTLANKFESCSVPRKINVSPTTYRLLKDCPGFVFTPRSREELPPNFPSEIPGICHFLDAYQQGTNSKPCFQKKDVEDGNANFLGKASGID
- Sequence (Q02153 whole entry): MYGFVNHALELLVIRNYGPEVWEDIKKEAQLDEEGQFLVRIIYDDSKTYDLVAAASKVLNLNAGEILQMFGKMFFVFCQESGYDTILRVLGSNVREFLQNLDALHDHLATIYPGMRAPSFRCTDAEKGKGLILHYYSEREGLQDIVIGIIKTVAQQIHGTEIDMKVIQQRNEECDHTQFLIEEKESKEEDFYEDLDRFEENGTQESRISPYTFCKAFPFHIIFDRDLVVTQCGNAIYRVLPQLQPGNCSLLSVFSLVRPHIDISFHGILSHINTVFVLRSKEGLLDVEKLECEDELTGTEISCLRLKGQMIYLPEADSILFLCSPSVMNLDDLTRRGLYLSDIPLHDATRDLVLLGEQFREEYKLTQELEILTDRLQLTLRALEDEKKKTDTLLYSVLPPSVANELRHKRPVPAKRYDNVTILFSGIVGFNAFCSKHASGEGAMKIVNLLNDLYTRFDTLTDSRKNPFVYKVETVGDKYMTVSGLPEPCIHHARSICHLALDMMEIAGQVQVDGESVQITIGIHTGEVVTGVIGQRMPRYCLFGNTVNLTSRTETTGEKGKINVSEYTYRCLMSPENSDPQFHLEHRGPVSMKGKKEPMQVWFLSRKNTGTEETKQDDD
- assay_info: Molecular assay: activation of heme-free sGC, cGMP detection (CisBio kit)
- measurement_context: 300 pM heme-free sGC, 37° C., 60 minutes, cGMP formation
- Experimental: The compounds of the invention may be evaluated in the following molecular assay: […] sGC catalyzes the conversion of guanosine-5′-triphosphate (GTP) to cyclic guanosine monophosphate (cGMP). The activity of sGC is measured in vitro using the commercially available CisBio cGMP detection kit (catalog #62GM2PEB) in a 384 well format. […]
pEC50: −log10 of the molar value.

- molecule: "Cc1ccc(OCc2ccc3c(c2C)CCN(C2CCOCC2)C3)c(-c2cccc(-c3c(C)c(C(=O)O)nn3C)n2)c1 [Compound 80]"
  pEC50: 6.81
- molecule: "Cc1cccc(-c2cccc(-n3cnc(C(=O)O)c3C)n2)c1OCc1ccc2c(c1C)CCN(Cc1ccccn1)C2 [Compound 56]"
  pEC50: 7.51
- molecule: "Cc1ccc(OCc2ccc3c(c2)CCN(C2CCOCC2)C3)c(-c2cccc(-n3ncc(C(=O)O)c3C(F)(F)F)n2)c1 [Compound 34]"
  pEC50: 8.10
- molecule: "Cc1cccc(-c2cccc(-n3cnc(C(=O)O)c3C)n2)c1OCc1ccc2c(c1)CCN(C1CCOCC1)C2 [Compound 57]"
  pEC50: 5.96
- molecule: "Cc1ccc(OCc2ccc3c(c2)CCN(C2CCOCC2)C3)c(-c2cccc(-n3cnc(C(=O)O)c3C)n2)c1 [Compound 58]"
  pEC50: 5.59
- molecule: "Cc1ccc(OCc2ccc3c(c2)CCN(C)C3)c(-c2cccc(-c3ncc(C(=O)O)n3C)n2)c1 [Compound 41]"
  pEC50: 5.34
- molecule: "Cc1ccc(OCc2ccc3c(c2C)CCN(C)C3)c(-c2cccc(-n3ncc(C(=O)O)c3C(F)(F)F)n2)c1 [Compound 38]"
  pEC50: 7.34
- molecule: "Cc1ccc(OCc2ccc3c(c2C)CCN(CC2CCOC2)C3)c(-c2cccc(-c3csc(C(=O)O)c3C)n2)c1 (stereo not drawn) [Compound 14]"
  pEC50: 7.96
- molecule: "Cc1ccc(OCc2ccc3c(c2)CCN(CC2CCOC2)C3)c(-c2cccc(-c3csc(C(=O)O)c3C)n2)c1 (stereo not drawn) [Compound 51]"
  pEC50: 6.47
- molecule: "Cc1ccc(OCc2ccc3c(c2)CCN(S(=O)(=O)CCCC(=O)O)C3)c(-c2cccc(-n3ncc(C(=O)O)c3C(F)(F)F)n2)c1 [Compound 3]"
  pEC50: 7.57
- molecule: "Cc1cccc(-c2cccc(-c3c(C)c(C(=O)O)nn3C3CC3)n2)c1OCc1ccc2c(c1)CCN(C1CCOCC1)C2 [Compound 91]"
  pEC50: 6.80
- molecule: "Cc1ccc(OCc2ccc3c(c2)CCN(Cc2ccccn2)C3)c(-c2cccc(-n3ncc(C(=O)O)c3C(F)(F)F)n2)c1 [Compound 18]"
  pEC50: 9.10
- molecule: "Cc1ccc(OCc2ccc3c(c2)CCNC3)c(-c2cccc(-n3ncc(C(=O)O)c3C(F)(F)F)n2)c1 [Compound 4]"
  pEC50: 6.24
- molecule: "Cc1ccc(OCc2ccc3c(c2)CCN(C2CCCCC2)C3)c(-c2cccc(-n3ncc(C(=O)O)c3C(F)(F)F)n2)c1 [Compound 19]"
  pEC50: 8.70
- molecule: "Cc1ccc(OCc2ccc3c(c2)CCN(C2CCOCC2)C3)c(-c2cccc(-n3ncc(C(=O)O)c3C)n2)c1 [Compound 65]"
  pEC50: 6.87
- molecule: "Cc1cccc(-c2cccc(-c3ncc(C(=O)O)n3C)n2)c1OCc1ccc2c(c1)CCN(C1CCC(F)(F)CC1)C2 [Compound 74]"
  pEC50: 7.57
- molecule: "Cc1ccc(OCc2ccc3c(c2)CCN(Cc2cc(C)on2)C3)c(-c2cccc(-n3ncc(C(=O)O)c3C(F)(F)F)n2)c1 [Compound 31]"
  pEC50: 8.70
- molecule: "Cc1ccc(OCc2ccc3c(c2)CCN3S(C)(=O)=O)c(-c2cccc(-n3ncc(C(=O)O)c3C(F)(F)F)n2)c1 [Compound 9]"
  pEC50: 7.17
- molecule: "Cc1ccc(OCc2ccc3c(c2)CCN(C2CCC(C(F)(F)F)CC2)C3)c(-c2cccc(-n3ncc(C(=O)O)c3C(F)(F)F)n2)c1 (stereo not drawn) [Compound 33]"
  pEC50: 8.22
- molecule: "Cc1ccc(OCc2ccc3c(c2)CCN(S(=O)(=O)CC(=O)O)C3)c(-c2cccc(-n3ncc(C(=O)O)c3C(F)(F)F)n2)c1 [Compound 1]"
  pEC50: 6.83
- molecule: "Cc1ccc(OCc2ccc3c(c2)CN(C)CC3)c(-c2cccc(-n3ncc(C(=O)O)c3C(F)(F)F)n2)c1 [Compound 52]"
  pEC50: 6.26
- molecule: "CC(=O)N1CCc2cc(COc3ccc(C)cc3-c3cccc(-n4ncc(C(=O)O)c4C(F)(F)F)n3)ccc2C1 [Compound 6]"
  pEC50: 7.11
- molecule: "Cc1ncc(CN2CCc3cc(COc4c(C)cccc4-c4cccc(-c5ncc(C(=O)O)n5C)n4)ccc3C2)s1 [Compound 70]"
  pEC50: 7.43
- molecule: "Cc1cccc(-c2cccc(-c3c(C)c(C(=O)O)nn3C3CC3)n2)c1OCc1ccc2c(c1)CCN(C1CCC(F)(F)CC1)C2 [Compound 90]"
  pEC50: 7.82
- molecule: "Cc1ccc(OCc2ccc3c(c2)CCN(S(C)(=O)=O)C3)c(-c2cccc(-n3ncc(C(=O)O)c3C(F)(F)F)n2)c1 [Compound 5]"
  pEC50: 7.48
- molecule: "Cc1cccc(-c2cccc(-c3ncc(C(=O)O)n3C)n2)c1OCc1ccc2c(c1)CCN(C1CCOCC1)C2 [Compound 67]"
  pEC50: 6.63
- molecule: "Cc1cccc(-c2cccc(-n3ncc(C(=O)O)c3C)n2)c1OCc1ccc2c(c1)CCN(C1CCOCC1)C2 [Compound 64]"
  pEC50: 7.68

----------
- assay_info: Assessment of solubility (HT solubility, pION, UV)
- Type: physicochemical
- measurement_context: pH 7.4 buffer, incubated 16-19 hours, 1.0% DMSO, 100 uM
The entries below come with measured Sol pH 7.4 values attached.
value_type: Sol pH 7.4

- compound: "Cc1ccc(OCc2ccc3c(c2)CCN(Cc2nc(C)cs2)C3)c(-c2cccc(-n3ncc(C(=O)O)c3C(F)(F)F)n2)c1"
  endpoint_value: ">61 μg/mL"
- compound: "Cc1cccc(-c2cccc(-c3c(C)c(C(=O)O)nn3CCC(=O)O)n2)c1OCc1ccc2c(c1)CCN(C1CCOCC1)C2"
  endpoint_value: ">60 μg/mL"
- compound: "Cc1cccc(-c2cccc(-c3c(C)c(C(=O)O)nn3C3CC3)n2)c1OCc1ccc2c(c1)CCN(C1CCOCC1)C2"
  endpoint_value: ">69 μg/mL"
- compound: "Cc1ccc(OCc2ccc3c(c2)CCN(C2CCCCC2)C3)c(-c2cccc(-n3ncc(C(=O)O)c3C(F)(F)F)n2)c1"
  endpoint_value: ">58 μg/mL"
- compound: "Cc1ccc(OCc2ccc3c(c2)CCN(C2CCOC2)C3)c(-c2cccc(-n3ncc(C(=O)O)c3C(F)(F)F)n2)c1 (centres unmarked)"
  endpoint_value: "43.0 μg/mL"
- compound: "Cc1ccc(OCc2ccc3c(c2C)CCN(CC2CCOC2)C3)c(-c2cccc(-c3csc(C(=O)O)c3C)n2)c1 (centres unmarked)"
  endpoint_value: "44.4 μg/mL"
- compound: "Cc1cccc(-c2cccc(-n3cnc(C(=O)O)c3C)n2)c1OCc1ccc2c(c1)CCN(C1CCOCC1)C2"
  endpoint_value: ">78 μg/mL"
- compound: "CCn1nc(C(=O)O)c(C)c1-c1cccc(-c2cccc(C)c2OCc2ccc3c(c2)CCN(C2CCOCC2)C3)n1"
  endpoint_value: ">67 μg/mL"
- compound: "Cc1cc(CN2CCc3cc(COc4c(C)cccc4-c4cccc(-c5ncc(C(=O)O)n5C)n4)ccc3C2)no1"
  endpoint_value: ">67 μg/mL"
- compound: "Cc1cccc(-c2cccc(-c3c(C)c(C(=O)O)nn3C(C)(C)C)n2)c1OCc1ccc2c(c1)CCN(C1CCOCC1)C2"
  endpoint_value: ">70 μg/mL"
- compound: "Cc1ccc(OCc2cc3c(cc2C)CN(C)CC3)c(-c2cccc(-n3ncc(C(=O)O)c3C(F)(F)F)n2)c1"
  endpoint_value: "1.2 μg/mL"
- compound: "Cc1cccc(-c2cccc(-c3onc(C(=O)O)c3C)n2)c1OCc1ccc2c(c1)CCN(C1CCOCC1)C2"
  endpoint_value: ">65 μg/mL"
- compound: "Cc1ccc(OCc2ccc3c(c2)CCN(Cc2ccccn2)C3)c(-c2cccc(-n3ncc(C(=O)O)c3C(F)(F)F)n2)c1"
  endpoint_value: ">59 μg/mL"
- compound: "Cc1ccc(OCc2ccc3c(c2)nnn3C)c(-c2cccc(-n3ncc(C(=O)O)c3C(F)(F)F)n2)c1"
  endpoint_value: ">50 μg/mL"
